Assay: Cytotoxicity against BALB/c mouse lymph node cells assessed as reduction in cell viability measured after 48 hrs by CCK8 assay
Assay type: cell-based
Measurement type: CC50 at 48 h (µM)
// return numeric value only (unit: µM, not printed)

Below are worked cases with known answers.
CC(C)CC(=O)c1c(O)c(C=O)c(O)c(C[C@@]2(C)CCC3C2[C@H]2[C@@H](CC[C@@]3(C)O)C2(C)C)c1O (some centres not stated) ... 554
CC(C)CC(=O)c1c(O)c(C=O)c(O)c(C[C@H]2CC[C@H](C)C3=C[C@@H](C(C)(C)O)CC[C@@]32C)c1O ... 578
CC(C)C[C@@H](c1c(O)c(C=O)c(O)c(C=O)c1O)[C@@]1(C)C=C2C(C)CC[C@H](C(C)(C)O)C2CC1 (some centres not stated) ... 596

Returns the measured CC50 at 48 h for the input compound. Input: CO[C@]1(C)CC[C@@H]2[C@H]([C@H]3[C@H]1CC[C@]3(C)[C@@H](CC(C)C)c1c(O)c(C=O)c(O)c(C=O)c1O)C2(C)C
578

* * *

Listing of entries alongside the reported CC50 at 48 h.
Experiment: Cytotoxicity against BALB/c mouse lymph node cells assessed as reduction in cell viability measured after 48 hrs by CCK8 assay
Type: cell-based
Form entry: value (µM) — number only.

Here are 2 compounds together with their reported answers.
CC(C)C[C@H](c1c(O)c(C=O)c(O)c(C=O)c1O)[C@@]1(C)CC[C@@H]2[C@@H]1[C@H]1[C@@H](CC[C@]2(C)O)C1(C)C ... 597
C=C1CC[C@@H]2[C@H](C3C1CC[C@]3(C)C(CC(C)C)c1c(O)c(C=O)c(O)c(C=O)c1O)C2(C)C (stereo partly drawn) ... 541

Proceeding to the next compound to report its CC50 at 48 h.
GET /values?readout=CC50 at 48 h&item= CC(C)C[C@H]1c2c(O)c(C=O)c(O)c(C=O)c2O[C@]23CC[C@@]1(C)C2[C@H]1[C@@H](CC[C@@H]3C)C1(C)C (stereo partly drawn)
588

* * *

Assay: Cytotoxicity against BALB/c mouse lymph node cells assessed as reduction in cell viability measured after 48 hrs by CCK8 assay
Assay type: cell-based
Entries whose CC50 at 48 h is below 600 µM take Yes; entries at or above 600 µM take No.

# count of solved cases: 2
CC(C)C[C@@H]1c2c(O)c(C=O)c(O)c(C=O)c2O[C@]2(C)C=C[C@@](O)(C(C)C)CC12 (stereo partly drawn) ... No
CCC(C)C(=O)c1c(O)c(C)c(OC)c(C)c1O (stereo not drawn) ... No

Confirm or reject: CC50 at 48 h of CC(C)C[C@H]1c2c(O)c(C=O)c(O)c(C=O)c2O[C@]2(C)C=C[C@@](O)(C(C)C)CC12 (stereo partly drawn) lies strictly below 600 µM
No

Subsequent entry: COc1c(C)c(O)c(C)c(O)c1C(=O)CC(C)C
No

Another compound: CC(C)C[C@H](c1c(O)c(C=O)c(O)c(C=O)c1O)[C@@]1(C)CC[C@@H]2[C@@H]1[C@H]1[C@@H](CC[C@@]2(C)O)C1(C)C
Yes

* * *

Listed below: CC50 at 48 h values for each entry.
Experiment: Cytotoxicity against BALB/c mouse lymph node cells assessed as reduction in cell viability measured after 48 hrs by CCK8 assay
Format: cell-based
Could you give me the number in µM? Just the number is fine.

Observe how each entry below is paired with its result.
CO[C@]1(C)CC[C@@H]2[C@H]([C@H]3[C@H]1CC[C@]3(C)[C@H](CC(C)C)c1c(O)c(C=O)c(O)c(C=O)c1O)C2(C)C ... 562
CC(C)CC(=O)c1c(O)c(C=O)c(O)c(C[C@H]2CC[C@@](C)(O)C3[C@H]4[C@@H](CC[C@@]32C)C4(C)C)c1O (stereo partly drawn) ... 598

Now for a further compound.
Consider the compound shown here: CC(C)C[C@H](c1c(O)c(C=O)c(O)c(C=O)c1O)C1CC[C@@H](C)C2=C[C@@H](C(C)(C)O)CC[C@@]21C (stereo partly drawn) What is its recorded CC50 at 48 h?
544

* * *

Items are presented alongside their recorded CC50 at 48 h.
Experiment: Cytotoxicity against BALB/c mouse lymph node cells assessed as reduction in cell viability measured after 48 hrs by CCK8 assay
Type: cell-based
Report the figure in µM without appending any unit label.

# example entries with known answers
CC(C)C[C@@H](c1c(O)c(C=O)c(O)c(C=O)c1O)[C@@]1(C)CC[C@@H]2[C@@H]1[C@H]1[C@@H](CC[C@@]2(C)O)C1(C)C ... 597
C/C1=C/[C@H]2[C@@H](CC[C@]3(C)Oc4c(C=O)c(O)c(C=O)c(O)c4[C@@H](CC(C)C)C3CC1)C2(C)C (stereo partly drawn) ... 600

Next:
# get_value(readout='CC50 at 48 h', item= CC(C)C[C@@H](c1c(O)c(C=O)c(O)c(C=O)c1O)C1CC[C@@H](C)C2=C[C@@H](C(C)(C)O)CC[C@@]21C (stereo partly drawn) )
602
